systemTested: UniProt P23977
testProtocol: transporter-mediated release in rat brain synaptosomes, DAT
Format: biochemical
testConditions: 3-substituted series; SERT EC50 ÷ DAT EC50
Exercise: state measured DAT vs SERT Selectivity for each of the molecules provided.
# respond with the number and nothing more

# DAT vs SERT Selectivity (molecule: CNC(C)C(=O)c1cccc(C)c1.Cl (stereo not drawn) ) is 10

# DAT vs SERT Selectivity (molecule: CNC(C)C(=O)c1cccc(C(F)(F)F)c1.Cl (stereo not drawn) ) is 0.4

# DAT vs SERT Selectivity (molecule: CNC(C)C(=O)c1cccc(OC)c1.Cl (stereo not drawn) ) is 6

# DAT vs SERT Selectivity (molecule: CNC(C)C(=O)c1cccc(Cl)c1 (stereo not drawn) ) is 8

# DAT vs SERT Selectivity (molecule: CNC(C)C(=O)c1cccc(Br)c1.Cl (stereo not drawn) ) is 6

# DAT vs SERT Selectivity (molecule: CNC(C)C(=O)c1ccccc1 (stereo not drawn) ) is 279

###

systemTested: DAT (Rattus norvegicus, UniProt P23977)
Sequence (P23977 whole entry): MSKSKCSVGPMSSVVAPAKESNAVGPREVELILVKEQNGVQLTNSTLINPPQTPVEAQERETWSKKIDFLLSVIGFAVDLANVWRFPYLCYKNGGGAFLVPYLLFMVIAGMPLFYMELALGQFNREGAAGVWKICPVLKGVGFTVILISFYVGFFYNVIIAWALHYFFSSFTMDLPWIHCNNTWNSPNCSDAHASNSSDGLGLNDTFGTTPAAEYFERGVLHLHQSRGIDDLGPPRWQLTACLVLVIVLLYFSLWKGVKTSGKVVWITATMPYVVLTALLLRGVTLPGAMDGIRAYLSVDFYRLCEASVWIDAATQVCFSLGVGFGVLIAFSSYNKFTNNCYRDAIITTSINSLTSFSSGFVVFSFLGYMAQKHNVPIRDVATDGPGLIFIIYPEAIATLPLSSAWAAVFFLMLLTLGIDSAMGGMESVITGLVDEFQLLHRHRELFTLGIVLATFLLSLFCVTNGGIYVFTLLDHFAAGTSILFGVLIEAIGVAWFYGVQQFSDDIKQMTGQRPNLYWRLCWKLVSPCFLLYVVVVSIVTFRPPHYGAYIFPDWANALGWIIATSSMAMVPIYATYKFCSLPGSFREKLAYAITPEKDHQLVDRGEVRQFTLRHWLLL
testProtocol: transporter-mediated release in rat brain synaptosomes, DAT
Assay type: biochemical
endpointName: pEC50
Scale explanation: pEC50 corresponds to minus log10 of a concentration expressed in moles per litre.

# pEC50 (compound: CNC(C)C(=O)c1cccc(C(F)(F)F)c1.Cl (centres unmarked) ) is 6.15

# pEC50 (compound: CNC(C)C(=O)c1cccc(OC)c1.Cl (centres unmarked) ) is 6.96

# pEC50 (compound: CNC(C)C(=O)c1ccccc1Cl.Cl (centres unmarked) ) is 6.75

# pEC50 (compound: CNC(C)C(=O)c1ccccc1OC.Cl (centres unmarked) ) is 6.04

# pEC50 (compound: CNC(C)C(=O)c1cccc(C)c1.Cl (centres unmarked) ) is 7.55

# pEC50 (compound: CNC(C)C(=O)c1ccccc1Br.Cl (centres unmarked) ) is 6.19

# pEC50 (compound: CNC(C)C(=O)c1ccccc1C.Cl (centres unmarked) ) is 7.09

# pEC50 (compound: CNC(C)C(=O)c1cccc(Br)c1.Cl (centres unmarked) ) is 7.68

###

systemTested: UniProt:P23977
testProtocol: transporter-mediated release in rat brain synaptosomes, DAT
Assay type: biochemical
testConditions: 2-substituted series; SERT EC50 ÷ DAT EC50
Cut-off 8 on DAT vs SERT Selectivity, inclusive. At or above means Condition met; below means Condition not met.

[Q] In plain terms: is recorded DAT vs SERT Selectivity at least 8 for CNC(C)C(=O)c1ccccc1Cl.Cl (centres unmarked) [2a] ?
[A] Condition met

[Q] In plain terms: is recorded DAT vs SERT Selectivity at least 8 for CNC(C)C(=O)c1ccccc1Br.Cl (centres unmarked) [2b] ?
[A] Condition not met

[Q] In plain terms: is recorded DAT vs SERT Selectivity at least 8 for CNC(C)C(=O)c1ccccc1 (centres unmarked) [compound 1, Methcathinone] ?
[A] Condition met

[Q] In plain terms: is recorded DAT vs SERT Selectivity at least 8 for CNC(C)C(=O)c1ccccc1C.Cl (centres unmarked) [2c] ?
[A] Condition not met
